Target: Nitric oxide synthase 1 (Rattus norvegicus)
Assay: Inhibition of nNOS in Wistar rat striata assessed as conversion of L-[3H]arginine to L-[3H]citrulline at 1 mM by liquid scintillation spectroscopy
READOUT_KIND: inhibition (%)

Recorded inhibition, per entry:
{"columns": ["MOLECULE", "READOUT_KIND", "MEASUREMENT_UNITS", "OBS_VALUE"],
 "data": [
  ["CCOC(=O)C1CC(C(=O)c2ccccc2N)=NN1Cc1ccccc1 (stereo unspecified)", "inhibition", "%", 28.4],
  ["CCOC(=O)C1CC(C(=O)c2cc(OC)ccc2N)=NN1C (stereo unspecified)", "inhibition", "%", -7.8],
  ["CCCCN1N=C(C(=O)c2ccccc2N)CC1C(=O)OCC (stereo unspecified)", "inhibition", "%", 29.6],
  ["CCOC(=O)C1CC(C(=O)c2ccccc2N)=NN1CC (stereo unspecified)", "inhibition", "%", 22.1]
]}

(1) CCOC(=O)c1cc(C(=O)c2ccccc2N)nn1Cc1ccccc1
(2) CCOC(=O)C1CC(C(=O)c2cc(Cl)ccc2N)=NN1C (stereo unspecified)
Exercise: Which has the higher inhibition, 1 or 2 ? Respond with the label that goes with your answer.
Key: 1
(1: 21.9%, 2: 1.3%)

----------
Biological target: Nitric oxide synthase 1 (Rattus norvegicus)
Assay: Inhibition of nNOS in Wistar rat striata assessed as conversion of L-[3H]arginine to L-[3H]citrulline at 1 mM by liquid scintillation spectroscopy
READOUT_KIND: inhibition (%)

{"columns": ["COMPOUND", "READOUT_KIND", "OBS_VALUE"],
 "data": [
  ["CCCCn1nc(C(=O)c2cc(Cl)ccc2N)cc1C(=O)OCC", "inhibition", 7.8],
  ["CCOC(=O)c1cc(C(=O)c2cc(Cl)ccc2N)nn1CC", "inhibition", 35.5],
  ["CCOC(=O)C1CC(C(=O)c2ccccc2N)=NN1C (configuration not stated)", "inhibition", -9.8],
  ["CCCCN1N=C(C(=O)c2cc(Cl)ccc2N)CC1C(=O)OCC (configuration not stated)", "inhibition", 38.5],
  ["CCOC(=O)C1CC(C(=O)c2cc(Cl)ccc2N)=NN1Cc1ccccc1 (configuration not stated)", "inhibition", 18.3]
]}

(a) CCOC(=O)c1cc(C(=O)c2ccccc2N)nn1CC
(b) CCOC(=O)c1cc(C(=O)c2cc(OC)ccc2N)nn1CC
(c) CCOC(=O)c1cc(C(=O)c2cc(Cl)ccc2N)nn1Cc1ccccc1
(d) CCOC(=O)C1CC(C(=O)c2cc(OC)ccc2N)=NN1Cc1ccccc1 (configuration not stated)
Exercise: Task for the reader: rank each entry by its inhibition, from the minimum upward. Order the labels as requested and list them.
Key: c, d, b, a

(1) CCOC(=O)c1cc(C(=O)c2cc(Cl)ccc2N)n[nH]1
(2) CCCCn1nc(C(=O)c2cc(OC)ccc2N)cc1C(=O)OCC
Exercise: Please tell me which of the two, 1 or 2 , has the higher reported inhibition value. Write down the label of the entry you select.
Key: 1

----------
Biological target: Nitric oxide synthase 1 (Rattus norvegicus)
Assay: Inhibition of nNOS in Wistar rat striata assessed as conversion of L-[3H]arginine to L-[3H]citrulline at 1 mM by liquid scintillation spectroscopy
READOUT_KIND: inhibition (%)

// solved cases for inhibition follow
{"columns": ["COMPOUND", "inhibition [%]"],
 "data": [
  ["CCOC(=O)c1cc(C(=O)c2cc(OC)ccc2N)nn1Cc1ccccc1", 19.4],
  ["CCCCn1nc(C(=O)c2ccccc2N)cc1C(=O)OCC", 21.9],
  ["CCOC(=O)C1CC(C(=O)c2cc(OC)ccc2N)=NN1CC (stereo unspecified)", 1.7]
]}

(a) CCOC(=O)C1CC(C(=O)c2cc(Cl)ccc2N)=NN1CC (stereo unspecified)
(b) CCOC(=O)c1cc(C(=O)c2cc(Cl)ccc2N)nn1C
(c) CCCCN1N=C(C(=O)c2cc(OC)ccc2N)CC1C(=O)OCC (stereo unspecified)
Exercise: Could you please order the items by inhibition, going from the lowest number to the highest? Answer by naming the labels in the order asked.
Key: c, b, a
